ASSAY SYSTEM: USP7 (Homo sapiens, UniProt Q93009)
Construct: full length human USP7 protein
Sequence (Q93009 whole entry): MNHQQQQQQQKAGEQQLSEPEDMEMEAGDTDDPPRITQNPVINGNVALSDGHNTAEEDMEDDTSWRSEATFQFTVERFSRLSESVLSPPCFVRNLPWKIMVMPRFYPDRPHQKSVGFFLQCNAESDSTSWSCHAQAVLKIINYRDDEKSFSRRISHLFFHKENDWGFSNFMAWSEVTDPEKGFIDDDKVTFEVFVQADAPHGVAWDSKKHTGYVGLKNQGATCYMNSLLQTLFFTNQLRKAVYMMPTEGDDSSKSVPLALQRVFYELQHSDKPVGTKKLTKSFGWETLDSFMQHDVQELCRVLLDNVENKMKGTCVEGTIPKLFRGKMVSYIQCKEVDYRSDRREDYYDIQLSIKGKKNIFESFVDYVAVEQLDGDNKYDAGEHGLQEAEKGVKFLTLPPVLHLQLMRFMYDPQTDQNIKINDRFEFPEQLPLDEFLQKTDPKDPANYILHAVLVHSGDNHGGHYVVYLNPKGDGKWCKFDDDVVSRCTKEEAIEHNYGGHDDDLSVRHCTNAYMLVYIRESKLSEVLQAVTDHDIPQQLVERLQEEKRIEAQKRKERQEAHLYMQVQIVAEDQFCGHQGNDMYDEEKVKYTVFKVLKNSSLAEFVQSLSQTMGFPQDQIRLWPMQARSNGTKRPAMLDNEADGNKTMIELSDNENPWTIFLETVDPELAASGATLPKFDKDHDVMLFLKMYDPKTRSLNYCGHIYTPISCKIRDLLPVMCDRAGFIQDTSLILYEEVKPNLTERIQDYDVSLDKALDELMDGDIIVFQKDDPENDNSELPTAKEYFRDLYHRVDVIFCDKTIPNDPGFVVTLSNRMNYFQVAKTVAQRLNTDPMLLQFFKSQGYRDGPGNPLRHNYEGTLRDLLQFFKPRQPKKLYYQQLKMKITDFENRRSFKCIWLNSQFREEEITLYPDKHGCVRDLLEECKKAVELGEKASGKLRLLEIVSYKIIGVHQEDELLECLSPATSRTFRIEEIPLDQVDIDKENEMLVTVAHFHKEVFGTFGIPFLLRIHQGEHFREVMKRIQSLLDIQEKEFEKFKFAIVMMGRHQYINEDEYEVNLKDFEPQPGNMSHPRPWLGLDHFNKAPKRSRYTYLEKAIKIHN
RUN DESCRIPTION: USP7, Ub-PLA2 assay
CONDITION DETAILS: Ub-PLA2 / NBD C6-HPC fluorescence, 30 minute preincubation; read-out: EC50 for inhibition of USP7
pEC50: −log10 of the molar value.
METRIC: pEC50

Illustrative cases are given below, each with its answer.
- SMILES: "O=C(Nc1ccc(Cl)cc1Cl)c1cc([N+](=O)[O-])c(Sc2c(Cl)cncc2Cl)s1"
  REPORTED: "≥ 6.00"
- SMILES: "CN1CCN(C(=O)c2cc([N+](=O)[O-])c(Sc3c(Cl)cncc3Cl)s2)CC1"
  REPORTED: "5.00 to 6.00"
- SMILES: "COc1ccccc1CCNC(=O)c1cc([N+](=O)[O-])c(Sc2c(Cl)cncc2Cl)s1"
  REPORTED: "≥ 6.00"
- SMILES: "O=C(NCc1ccc2c(c1)CCO2)c1cc([N+](=O)[O-])c(Sc2c(Cl)cncc2Cl)s1"
  REPORTED: "5.00 to 6.00"
- SMILES: "N=C(N)N1CCC(NC(=O)c2cc([N+](=O)[O-])c(Sc3c(Cl)cncc3Cl)s2)CC1"
  REPORTED: "≥ 6.00"

Field: pEC50. Fill in for each record below.
1. O=C(Nc1ccc(F)cc1)c1cc([N+](=O)[O-])c(Sc2c(Cl)cncc2Cl)s1
2. O=C(NC12CC3CC(CC(C3)C1)C2)c1cc([N+](=O)[O-])c(Sc2c(Cl)cncc2Cl)s1
3. O=C(Nc1cccc(F)c1)c1cc([N+](=O)[O-])c(Sc2c(Cl)cncc2Cl)s1

Reply |
["≥ 6.00", "< 5.00", "≥ 6.00"]

Values were extracted from patent US8680139B2.
